From: a melting point compilation (Tetko et al.; mined from patent text by program, amines drawn as free bases though some values may be those of a salt)

Reported Endpoint: melting point

melting point measured on "O=C1CCCC(=NNc2ccccc2)C1" = 187 to 189 °C

More entries:
The value of melting point measured for the compound "O=C1CC2(CCCC2)C(=O)N1c1ccncc1" turned out to be 100 to 103 °C

Entry "N#Cc1ccc(N2CCCCO2)c2ccccc12" ; melting point = 111 to 112 °C

Query "COc1ccc(OC)c(C(=O)/C=C/C(=C/C(=O)O)c2ccccc2)c1" yields melting point of 165 °C

Lab book: melting point of CCCNC1CCc2nc(N)sc2C1 (stereo unspecified) noted as 145 to 150 °C

melting point recorded for this compound, "CC(C)NC(=O)CCCCc1cc(O)c(O)c([N+](=O)[O-])c1" , is 113 to 115 °C

Quick note, melting point for "CN(C)CCn1c(=O)[nH]c2ccccc21" landed at 106 to 108 °C
